B1: tRNA (parent)
chain: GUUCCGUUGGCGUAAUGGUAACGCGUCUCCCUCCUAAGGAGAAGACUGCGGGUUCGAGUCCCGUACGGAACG

Variants of: B1
test.details: yeast fitness relative to wild type (ratio to wild type); higher = fitter; tRNA-Arg(CCU), competitive growth, 37 C, YPD
Variants at the floor of the assay were thinned out.
quantity: yeast fitness

Ask: Param item = C11A C22G G67A G68C ; retrieve measured yeast fitness.
Result: ≤ 0.5

Ask: # lookup: yeast fitness of C34G A57C
Result: ≤ 0.5

Ask: Given U3C G25U U59C A69C , state its recorded yeast fitness.
Result: 0.531

Ask: Name the recorded yeast fitness for C11G A14G G17A A37G G48C C62U C66G A70G .
Result: ≤ 0.5

Ask: Bench note: what yeast fitness did C5G C11G A15U U54C C61G A70C show?
Result: ≤ 0.5

Ask: For the variant shown here, C22U G51A , give the reported yeast fitness.
Result: 0.804

Ask: GET /values?readout=yeast fitness&item= C30U G58C C66U
Result: 0.663

Ask: Which measured yeast fitness value corresponds to U3A C5G U35A A40U C46G U53A ?
Result: 0.583

Ask: Which yeast fitness is listed for C4G C5U A37U ?
Result: ≤ 0.5

Ask: GET /values?readout=yeast fitness&item= C4U G10A C11G A20G C27G A65G
Result: ≤ 0.5

Ask: Any idea what its yeast fitness is? The variant is A20G C22G C27G C30U C31G G51C
Result: ≤ 0.5

Data credit: the RNAGym collection of RNA variant scans (doi:10.1126/science.aae0568)
